Values from patent US11566007B2

system-name: NRAS Q61R (Homo sapiens (Human), UniProt P01111+P62937, Q61R)
Sequence (P01111 whole entry Q61R): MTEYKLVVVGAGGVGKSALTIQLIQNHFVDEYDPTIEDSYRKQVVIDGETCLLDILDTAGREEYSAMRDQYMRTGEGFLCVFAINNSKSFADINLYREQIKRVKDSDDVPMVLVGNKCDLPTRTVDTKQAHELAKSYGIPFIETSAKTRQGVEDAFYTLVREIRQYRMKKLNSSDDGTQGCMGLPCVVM
Sequence (P62937 whole entry): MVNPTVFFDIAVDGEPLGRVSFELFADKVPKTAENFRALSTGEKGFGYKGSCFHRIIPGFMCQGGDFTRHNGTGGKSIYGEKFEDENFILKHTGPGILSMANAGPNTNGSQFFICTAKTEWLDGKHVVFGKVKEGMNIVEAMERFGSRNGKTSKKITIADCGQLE
test-name: Ras-Raf (BRAF RBD) disruption / FRET / MOA assay, NRAS Q61R
Assay type: biochemical
conditions: NRAS Q61R; Ras-Raf disruption/FRET/MOA assay; read-out: IC50* NRAS Q61R FRET data
Method: The purpose of this biochemical assay is to measure the ability of test compounds to facilitate ternary complex formation between a nucleotide-loaded Ras isoform and cyclophilin A; the resulting ternary complex disrupts binding to a BRAF^RBD construct, inhibiting Ras signaling through a RAF effector. […]. Compound is present in plate wells as a 10-point 3-fold dilution series starting at a final concentration of 30 μM. […]
pIC50: −log10 of the molar value.
result-type: pIC50

>  <compound>
C=CC(=O)N1C[C@H](C)N(C(=O)N(C)[C@H](C(=O)N[C@H]2Cc3nc(cs3)-c3ccc4c(c3)c(c(-c3cccnc3[C@H](C)OC)n4CC)CC(C)(C)COC(=O)[C@@H]3CCCN(N3)C2=O)C(C)C)[C@@H](C)C1 (atropisomer, axis not shown)

>  <system-name>
NRAS Q61R (Homo sapiens (Human), UniProt P01111+P62937, Q61R)

>  <value-reported>
7.00 to 8.00

$$$$
>  <compound>
C=CC(=O)N1CC[C@@]2(CCN(C(=O)N(C)[C@H](C(=O)N[C@H]3Cc4nc(cs4)-c4ccc5c(c4)c(c(-c4cccnc4[C@H](C)OC)n5CC)CC(C)(C)COC(=O)[C@@H]4CCCN(N4)C3=O)C(C)C)C2)C1 (atropisomer, axis not shown)

>  <system-name>
NRAS Q61R (Homo sapiens (Human), UniProt P01111+P62937, Q61R)

>  <value-reported>
7.00 to 8.00

$$$$
>  <compound>
C=CC(=O)N1CC[C@H](C(=O)N(C)[C@H](C(=O)N[C@H]2Cc3cc(O)cc(c3)-c3ccc4nc(-c5cccnc5COC)c(n4c3)CC(C)(C)COC(=O)[C@@H]3CCCN(N3)C2=O)C(C)C)C1

>  <system-name>
NRAS Q61R (Homo sapiens (Human), UniProt P01111+P62937, Q61R)

>  <value-reported>
< 5.00

$$$$
>  <compound>
C=CC(=O)C1C[C@@H](C(=O)N(C)[C@H](C(=O)N[C@H]2Cc3cc(O)cc(c3)-c3ccc4c(n3)c(c(-c3ccccc3CCOC)n4CC)CC(C)(C)COC(=O)[C@@H]3CCCN(N3)C2=O)C(C)C)CN1 (stereo partly drawn)

>  <system-name>
NRAS Q61R (Homo sapiens (Human), UniProt P01111+P62937, Q61R)

>  <value-reported>
< 5.00

$$$$
>  <compound>
C=CC(=O)N(C)[C@H]1CC1N(C)C(=O)N(C)[C@H](C(=O)N[C@H]1Cc2nc(cs2)-c2ccc3c(c2)c(c(-c2cccnc2[C@H](C)OC)n3CC)CC(C)(C)COC(=O)[C@@H]2CCCN(N2)C1=O)C(C)C (stereo partly drawn)

>  <system-name>
NRAS Q61R (Homo sapiens (Human), UniProt P01111+P62937, Q61R)

>  <value-reported>
6.00 to 7.00

$$$$
>  <compound>
C=CC(=O)N1CC[C@H](C(=O)N(C)[C@H](C(=O)N[C@H]2Cc3cc(O)cc(c3)-c3ccc4c(c3)c(c(-c3cccnc3)n4[C@H](C)C#N)CC(C)(C)COC(=O)[C@@H]3CCCN(N3)C2=O)C(C)C)C1

>  <system-name>
NRAS Q61R (Homo sapiens (Human), UniProt P01111+P62937, Q61R)

>  <value-reported>
5.00 to 6.00

$$$$

====

system-name: K-Ras G12C (Homo sapiens (Human), UniProt P01116+P62937, G12C)
Sequence (P01116-2 other isoform, or with tags, fused parts or gaps G12C, one chain of several): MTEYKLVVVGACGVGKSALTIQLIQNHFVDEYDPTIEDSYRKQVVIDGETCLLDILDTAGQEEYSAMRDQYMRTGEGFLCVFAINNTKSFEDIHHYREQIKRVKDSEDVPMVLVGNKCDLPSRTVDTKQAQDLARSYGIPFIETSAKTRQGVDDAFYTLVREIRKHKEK
test-name: Ras-Raf (BRAF RBD) disruption / FRET / MOA assay, KRAS G12C
Type: biochemical
conditions: KRAS G12C; Ras-Raf disruption/FRET/MOA assay; read-out: IC50* KRAS G12C FRET data
pIC50: −log10 of the molar value.

>  <compound>
C=CC(=O)N1CC[C@H](C(=O)N(C)[C@H](C(=O)NC2C[C@@H]3CN(CCO3)c3ccc4c(c3)c(c(-c3cccnc3[C@H](C)OC)n4CC)CC(C)(C)COC(=O)[C@@H]3CCCN(N3)C2=O)C(C)C)C1 (some centres unmarked) [Example A312]

>  <pIC50>
< 5.00

$$$$
>  <compound>
CCn1c(-c2cccnc2[C@H](C)OC)c2c3cc(ccc31)C1=CCCN(C1)C[C@H](NC(=O)[C@H](C(C)C)N(C)C(=O)C1(F)CCN(C(=O)C#CC(C)(C)N(C)C)CC1)C(=O)N1CCC[C@H](N1)C(=O)OCC(C)(C)C2 (atropisomer, axis not shown) [Example A591]

>  <pIC50>
> 8.00

$$$$
>  <compound>
C=CC(=O)N1CC[C@@]2(C1)OCN([C@H](C(=O)N[C@H]1Cc3cccc(c3)-c3ccc4c(c3)c(c(-c3cccnc3[C@H](C)OC)n4CC)CC(C)(C)COC(=O)[C@@H]3CCCN(N3)C1=O)C(C)C)C2=O (atropisomer, axis not shown) [Example A358]

>  <pIC50>
6.00 to 7.00

$$$$
>  <compound>
CCn1c(-c2cccnc2COC)c2c3cc(ccc31)-c1cc(O)cc(c1)C[C@H](NC(=O)[C@H](C(C)C)N(C)C(=O)[C@H]1CCN(C(=O)C#CCN3CCN(C)CC3)C1)C(=O)N1CCC[C@H](N1)C(=O)OCC(C)(C)C2 [Example A189]

>  <pIC50>
7.00 to 8.00

$$$$
>  <compound>
C=CC(=O)N(C)[C@@H]1CCN(C(=O)N(C)[C@H](C(=O)N[C@H]2Cc3nc(cs3)-c3ccc4c(c3)c(c(-c3cccnc3[C@H](C)OC)n4CC)CC(C)(C)COC(=O)[C@@H]3CCCN(N3)C2=O)C(C)C)C1 (atropisomer, axis not shown) [Example A416]

>  <pIC50>
7.00 to 8.00

$$$$
>  <compound>
C=CC(=O)N1CC[C@H](C(=O)N(C2CC2)[C@H](C(=O)N[C@H]2Cc3cccc(c3)-c3ccc4c(c3)c(c(-c3cccnc3[C@H](C)OC)n4CC)CC(C)(C)COC(=O)[C@@H]3CCCN(N3)C2=O)C(C)C)C1 (atropisomer, axis not shown) [Example A398]

>  <pIC50>
5.00 to 6.00

$$$$
>  <compound>
CCn1c(-c2cccnc2[C@H](C)OC)c2c3cc(ccc31)-c1cc(O)cc(c1)C[C@H](NC(=O)[C@H](C(C)C)N(C)C(=O)c1ccc(NC(=O)/C=C/CN(C)C)cn1)C(=O)N1CCC[C@H](N1)C(=O)OCC(C)(C)C2 (atropisomer, axis not shown) [Example A251]

>  <pIC50>
7.00 to 8.00

$$$$
>  <compound>
C=CC(=O)Nc1ccc(C(=O)N(C)[C@H](C(=O)N[C@H]2Cc3cc(O)cc(c3)-c3ccc4c(c3)c(c(-c3cccnc3[C@H](C)OC)n4CC)CC(C)(C)COC(=O)[C@@H]3CCCN(N3)C2=O)C(C)C)cn1 (atropisomer, axis not shown) [Example A250]

>  <pIC50>
7.00 to 8.00

$$$$

====

system-name: KRAS G13D (Homo sapiens (Human), UniProt P01116+P62937, G13D)
Sequence (P01116-2 other isoform, or with tags, fused parts or gaps G13D, one chain of several): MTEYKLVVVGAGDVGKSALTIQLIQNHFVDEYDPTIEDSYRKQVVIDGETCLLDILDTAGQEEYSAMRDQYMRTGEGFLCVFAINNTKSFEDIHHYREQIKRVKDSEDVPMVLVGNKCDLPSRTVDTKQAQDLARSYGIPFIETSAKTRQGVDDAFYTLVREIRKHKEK
test-name: Ras-Raf (BRAF RBD) disruption / FRET / MOA assay, KRAS G13D
Assay type: biochemical
conditions: read-out: IC50* KRAS G13D FRET data
pIC50: −log10 of the molar value.
Collected pIC50 values appear next to each entry.
result-type: pIC50

>  <molecule>
C=CC(=O)N1CC[C@H](C(=O)N(C)[C@H](C(=O)N[C@H]2Cc3csc(n3)-c3ccc4c(c3)c(c(-c3cccnc3[C@H](C)OC)n4CC)CC(C)(C)COC(=O)[C@@H]3CCCN(N3)C2=O)C(C)C)C1 (atropisomer, axis not shown) [Example A330]

>  <value-reported>
5.00 to 6.00

$$$$
>  <molecule>
CCn1c(-c2cccnc2[C@H](C)OC)c2c3cc(ccc31)-c1csc(n1)C[C@H](NC(=O)[C@H](C(C)C)N(C)C(=O)N1C[C@@H]3CN(C(=O)C#CC(C)(C)N(C)C)CC[C@@H]31)C(=O)N1CCC[C@H](N1)C(=O)OCC(C)(C)C2 (atropisomer, axis not shown) [Example A625]

>  <value-reported>
5.00 to 6.00

$$$$
>  <molecule>
C=CC(=O)N1CC2(C1)OCCN2C(=O)N(C)[C@H](C(=O)N[C@H]1Cc2nc(cs2)-c2ccc3c(c2)c(c(-c2cccnc2[C@H](C)OC)n3CC)CC(C)(C)COC(=O)[C@@H]2CCCN(N2)C1=O)C(C)C (atropisomer, axis not shown) [Example A620]

>  <value-reported>
6.00 to 7.00

$$$$
>  <molecule>
C=CC(=O)N1CC[C@H](C(=O)N(C)[C@H](C(=O)N[C@H]2Cc3cc(O)cc(c3)-c3ccc4c(c3)c(c(-c3cccnc3[C@@H]3CCCO3)n4CC)CC(C)(C)COC(=O)[C@@H]3CCCN(N3)C2=O)C(C)C)C1 (atropisomer, axis not shown) [Example A281]

>  <value-reported>
6.00 to 7.00

$$$$
>  <molecule>
COCc1ncccc1-c1nc2ccc3cc2n1CC(C)(C)COC(=O)[C@@H]1CCCN(N1)C(=O)[C@@H](NC(=O)[C@H](C(C)C)N(C)C(=O)[C@H]1CCN(C(=O)C#CCN2CCOCC2)C1)Cc1cc(O)cc-3c1 [Example A188]

>  <value-reported>
< 5.00

$$$$
>  <molecule>
CCn1c(-c2cccnc2[C@H](C)OC)c2c3cc(ccc31)-c1cccc(c1)C[C@H](NC(=O)[C@@H](CO[C@H]1CCN(C(=O)C#CC(C)(C)N(C)C)C1)C(C)C)C(=O)N1CCC[C@H](N1)C(=O)OCC(C)(C)C2 (atropisomer, axis not shown) [Example A585]

>  <value-reported>
< 5.00

$$$$
>  <molecule>
C=CC(=O)N1CC[C@H](C(=O)N(C)[C@H](C(=O)N[C@H]2Cc3cc(C(F)F)cc(n3)-c3ccc4c(c3)c(c(-c3cccnc3[C@H](C)OC)n4CC)CC(C)(C)COC(=O)[C@@H]3CCCN(N3)C2=O)C(C)C)C1 (atropisomer, axis not shown) [Example A441]

>  <value-reported>
< 5.00

$$$$
>  <molecule>
C=CC(=O)N(C)[C@@H]1CCCN(C(=O)N(C)[C@H](C(=O)N[C@H]2Cc3nc(cs3)-c3ccc4c(c3)c(c(-c3cccnc3[C@H](C)OC)n4CC)CC(C)(C)COC(=O)[C@@H]3CCCN(N3)C2=O)C(C)C)C1 (atropisomer, axis not shown) [Example A382]

>  <value-reported>
6.00 to 7.00

$$$$
